protocolText: qHTS Assay for Modulators of miRNAs and/or Inhibitors of miR-21; also: potency is read from the fitted curve at half-maximal effect; nearly all actives have a fitted effect of over 55% in size
protocolConditions: HeLa miR-21-FLuc reporter, luciferase luminescence, 48 h; actives lower the signal
Out of some 340,000 compounds screened, about 3,300 (0.97%) were called active. Another 9% or so got no clear call; they are omitted. This is one part of the list.
We begin with a simple list: items and their reported Potency.

[
  {
    "inputSmiles": "COc1ccc2c(CC(=O)N3CCc4ccccc43)coc2c1",
    "reported": "2.93 µM (active)"
  },
  {
    "inputSmiles": "COc1ccccc1-c1nc(COc2ccc(Cl)cc2Cl)no1",
    "reported": "7.36 µM (active)"
  }
]

Turning to the following molecule.
**Query** Look up Potency for this molecule: COc1ccc(NC(=S)NNC(=O)c2cccs2)cc1
**Result** 7.36 µM (active)

---

protocolText: qHTS Assay for Modulators of miRNAs and/or Inhibitors of miR-21; also: potency is read from the fitted curve at half-maximal effect; nearly all actives have a fitted effect of over 55% in size
protocolConditions: HeLa miR-21-FLuc reporter, luciferase luminescence, 48 h; actives lower the signal
Among all 340,000 compounds or so, about 3,300 (0.97%) were called active. Inconclusive results (about 9%) are left out. The list shows a part of the results.
testReadout: Potency

Consider the reported Potency for these compounds:
[
  {
    "inputSmiles": "Cc1ccc(-c2cc(N)n(-c3ccc(F)cc3)n2)cc1",
    "Potency": "4.14 µM (active)"
  },
  {
    "inputSmiles": "Brc1cc(Br)c2nc(-c3ccc(N4CCOCC4)cc3)ccc2c1",
    "Potency": "14.7 µM (active)"
  },
  {
    "inputSmiles": "N#C/C(=C/c1ccc(O)c(O)c1)c1nc2ccccc2[nH]1",
    "Potency": "3.29 µM (active)"
  },
  {
    "inputSmiles": "Cc1cccc(NC(=O)CCCc2ccccc2)c1",
    "Potency": "7.36 µM (active)"
  }
]

Turning to the following compound.
**Query** Look up Potency for this compound: c1ccc(Nc2nc(-c3ccccc3)ns2)cc1
**Result** 0.414 µM (active)

---

protocolText: qHTS Assay for Modulators of miRNAs and/or Inhibitors of miR-21; also: potency is read from the fitted curve at half-maximal effect; nearly all actives have a fitted effect of over 55% in size
protocolConditions: HeLa miR-21-FLuc reporter, luciferase luminescence, 48 h; actives lower the signal
Out of some 340,000 compounds screened, about 3,300 (0.97%) were called active. Not shown: some 9% with an inconclusive outcome. The list shows a part of the results.
testReadout: Potency

[
  {
    "compound": "C=CCSc1nncn1/N=C/c1ccc(OC)cc1",
    "Potency": "2.61 µM (active)"
  },
  {
    "compound": "COc1cc(OC)c2c(=O)cc(-c3ccccc3)oc2c1",
    "Potency": "6.56 µM (active)"
  },
  {
    "compound": "O=C(COc1ccccc1[N+](=O)[O-])Nc1ccc2c(c1)OCO2",
    "Potency": "3.29 µM (active)"
  },
  {
    "compound": "Cc1ccc(OCC(=O)Nc2ccccc2F)cc1C",
    "Potency": "4.14 µM (active)"
  }
]

Turning to the following compound.
**Query** Look up Potency for this compound: Cc1nc(-c2ccc3c(c2)CCC(=O)N3)cs1
**Result** 14.7 µM (active)

---

protocolText: qHTS Assay for Modulators of miRNAs and/or Inhibitors of miR-21; also: potency is read from the fitted curve at half-maximal effect; nearly all actives have a fitted effect of over 55% in size
protocolConditions: HeLa miR-21-FLuc reporter, luciferase luminescence, 48 h; actives lower the signal
The campaign covered roughly 340,000 compounds. About 3,300 (0.97%) were called active. Roughly 9% stayed inconclusive and do not appear here. The list shows a part of the results.
testReadout: Potency

Consider the reported Potency for these molecules:
[
  {
    "molecule": "Cc1ccc(OCCSc2nc(N)cc(N)n2)cc1",
    "reported": "4.65 µM (active)"
  },
  {
    "molecule": "Cc1ccc(SCC(=O)c2ccc[nH]2)cc1",
    "reported": "13.1 µM (active)"
  },
  {
    "molecule": "O=C(COc1ccccc1Cl)Nc1ccc2c(c1)OCO2",
    "reported": "1.85 µM (active)"
  }
]

**Query** Look up Potency for this molecule: Cc1ccc(NC(=O)Nc2ccc3c(c2)OCO3)nc1
**Result** 2.33 µM (active)

**Query** Look up Potency for this molecule: Cc1ccc(OCc2ccc(Br)cc2)c([N+](=O)[O-])n1
**Result** 2.61 µM (active)

**Query** Look up Potency for this molecule: CC(=O)c1ccc(NC(=O)c2ccc(C)c(Br)c2)cc1
**Result** 0.826 µM (active)

**Query** Look up Potency for this molecule: CCN(CC)CCCNc1ncnc2c1cnn2-c1ccc(C)c(C)c1
**Result** 6.56 µM (active)
